# Procedure text: Metabolic stability in human liver assessed as intrinsic clearance measured upto 60 min by UPLC-MS/MS analysis
# Assay type: ADME, tissue-based
# Test context: read-out: CLH
Property label: CLint scaled (L/h/kg)
The reply should be a number in L/h/kg, with the unit left off.

stdin: Sample CN(C)CCOc1ccc2ncnc(NC3CCN(CC4CN(c5ccc(S(=O)(=O)C6CC6)cc5)C4)CC3)c2n1 — what was its CLint scaled?
stdout: 0.48

----------
# Procedure text: Metabolic stability in CD-1 mouse liver microsome assessed as half life measured upto 60 min by UPLC-MS/MS analysis
# Assay type: ADME
# Test context: liver microsomes
Property label: half-life (h)
The reply should be a number in h, with the unit left off.

stdin: Sample CN(C)CCOc1ccc2ncnc(NC3CCN(CC4CN(c5ccc(S(=O)(=O)C6CC6)cc5)C4)CC3)c2n1 — what was its half-life?
stdout: 3.38
